Listing of entries alongside the reported Burkin Assay in Myoblasts, signal relative to DMSO.
tested on: α7 integrin (LacZ reporter in α7βgal+/− myoblasts); test: Myoblast α7+/LacZ integrin FDG assay (Burkin assay in myoblasts, 96-well); type: cell-based, mouse; conditions: 40 uM; α7+/LacZ myoblasts, 96-well
Answer with a bare number; do not write a unit.

Example entries begin here.
[[record]]
compound = "O=C1CCc2cc(S(=O)(=O)Nc3ccc(C(F)(F)F)cc3)cc3c2N1CC3"
experimental_target = "α7 integrin (LacZ reporter in α7βgal+/− myoblasts)"
value_measured = 0.8187

[[record]]
compound = "CC(C)(C)NC(=O)NC(=O)CN1CCN(Cc2ccccc2)CC1"
experimental_target = "α7 integrin (LacZ reporter in α7βgal+/− myoblasts)"
value_measured = 0.9414

[[record]]
compound = "O=c1[nH]c2ccccc2nc1-c1c[nH]c2ccccc12"
experimental_target = "α7 integrin (LacZ reporter in α7βgal+/− myoblasts)"
value_measured = 0.3285


Notebook: COc1ccc(S(=O)(=O)Nc2ccc(S(=O)(=O)Nc3nccs3)cc2)cc1 , Burkin Assay in Myoblasts, signal relative to DMSO read as 0.9876

The recorded Burkin Assay in Myoblasts, signal relative to DMSO for entry CCOC(=O)C1(Cc2cccc(Cl)c2)CCCN(C(=O)CCSC)C1 (centres unmarked) equals 0.7738

====

tested on: α7 integrin (LacZ reporter in α7βgal+/− myoblasts); assay: Myoblast α7+/LacZ integrin FDG assay (Burkin assay in myoblasts, 96-well); type: cell-based, mouse; conditions: 40 uM; α7+/LacZ myoblasts, 96-well
recorded-metric: Burkin Assay in Myoblasts, value relative to DMSO
Give the figure only, with no unit attached.

Observe how each entry below is paired with its result.
[[record]]
compound = "CS(=O)(=O)Cc1cccc(C(=O)NN(c2ccccc2)c2ccccc2)c1 [MLS001175473-01]"
experimental_target = "α7 integrin (LacZ reporter in α7βgal+/− myoblasts)"
value_measured = 0.8698

[[record]]
compound = "C/C(=N\\Nc1nncc2ccccc12)c1cccc(OC(F)F)c1 [MLS001175556-01]"
experimental_target = "α7 integrin (LacZ reporter in α7βgal+/− myoblasts)"
value_measured = 0.8018

[[record]]
compound = "CN(C)S(=O)(=O)c1ccc(C(=O)Nc2nc3ccccc3[nH]2)cc1 [MLS000774940-01]"
experimental_target = "α7 integrin (LacZ reporter in α7βgal+/− myoblasts)"
value_measured = 0.7761


α7 integrin (LacZ reporter in α7βgal+/− myoblasts) assay, compound O=C(Nc1ccccc1)Nc1ccc(Cl)c(S(=O)(=O)N2CCOCC2)c1 [MLS000773700-01] , recorded Burkin Assay in Myoblasts, value relative to DMSO = 0.8721

Record COC(=O)C(=O)C/C(=N/Nc1ncnc2ccccc12)c1ccc(Cl)cc1 [MLS001174719-01] ; system α7 integrin (LacZ reporter in α7βgal+/− myoblasts); Burkin Assay in Myoblasts, value relative to DMSO = 0.5265

Measured Burkin Assay in Myoblasts, value relative to DMSO (α7 integrin (LacZ reporter in α7βgal+/− myoblasts)), entry CCCCNS(=O)(=O)c1ccc2nc(-c3cccnc3)cc(C(=O)NCCOC)c2c1 [MLS000673766-01] : 0.9919

Per the reported α7 integrin (LacZ reporter in α7βgal+/− myoblasts) data, COc1cc(CNCc2ccc(C(=O)O)cc2)ccc1OCc1ccc(F)cc1.Cl [MLS001216405-01] has Burkin Assay in Myoblasts, value relative to DMSO of 0.7667

The origin of these recorded values is patent US9980943B2.
